Experiment: Pharmacokinetic parameters (Tmax, AUClast, Cmax) of DD217 in phase II trial patients
Format: in vivo, human (patients undergoing knee replacement surgery)
Details: human, plasma, oral, 60 mg; CYP2C8 rs11572080 C/C (n 16); read-out: Tmax (h, SD)
Experimental: The design, eligibility criteria, and outcomes of the phase II clinical trial evaluating the safety and tolerability of DD217 (NCT05189002, ClinicalTrials.gov) have been described previously. […] To characterize the pharmacokinetic profile of DD217 in our study, three parameters were assessed: Cmax, Tmax, and AUClast.
MEASUREMENT KIND: Tmax (h)
Give a bare numeral; the unit h is implied.

Prompt line: What value of Tmax has been reported for the following compound? CC(=N)N(C)c1ccc(C(=O)Nc2ccc(C)cc2C(=O)Nc2ccc(Cl)cn2)cc1.Cl [DD217]
Response line: 9.81

---

Experiment: Pharmacokinetic parameters (Tmax, AUClast, Cmax) of DD217 in phase II trial patients
Format: in vivo, human (patients undergoing knee replacement surgery)
Conditions: human, plasma, oral, 60 mg; CYP2C8 rs11572080 C/C (n 16); read-out: Cmax (SD)
Experimental: The design, eligibility criteria, and outcomes of the phase II clinical trial evaluating the safety and tolerability of DD217 (NCT05189002, ClinicalTrials.gov) have been described previously. […] To characterize the pharmacokinetic profile of DD217 in our study, three parameters were assessed: Cmax, Tmax, and AUClast.
MEASUREMENT KIND: Cmax (ng/mL)
Give a bare numeral; the unit ng/mL is implied.

Prompt line: What value of Cmax has been reported for the following molecule? CC(=N)N(C)c1ccc(C(=O)Nc2ccc(C)cc2C(=O)Nc2ccc(Cl)cn2)cc1.Cl [DD217]
Response line: 6.11

---

Assay: Pharmacokinetic parameters (Tmax, AUClast, Cmax) of DD217 in phase II trial patients
Format: in vivo, human (patients undergoing knee replacement surgery)
Conditions: human, plasma, im, 60 mg; CYP2C19 *1/*2, *2/*2, *2/*17, IM + PM (n = 4); mean ± SD; read-out: Tmax
MEASUREMENT KIND: Tmax

Prompt line: What value of Tmax has been reported for the following compound? CC(=N)N(C)c1ccc(C(=O)Nc2ccc(C)cc2C(=O)Nc2ccc(Cl)cn2)cc1.Cl
Response line: 9.5 h

---

Experiment: Pharmacokinetic parameters (Tmax, AUClast, Cmax) of DD217 in phase II trial patients
Type: in vivo, human (patients undergoing knee replacement surgery)
Conditions: human, plasma, oral, 40 mg/day; ABCB1 rs1045642 T>C, T/T (n 4); read-out: Cmax (SD)
MEASUREMENT KIND: Cmax

Prompt line: What value of Cmax has been reported for the following compound? CC(=N)N(C)c1ccc(C(=O)Nc2ccc(C)cc2C(=O)Nc2ccc(Cl)cn2)cc1.Cl
Response line: 4.63 ng/mL

---

Assay: Pharmacokinetic parameters (Tmax, AUClast, Cmax) of DD217 in phase II trial patients
Type: in vivo, human (patients undergoing knee replacement surgery)
Details: human, plasma, oral, 40 mg/day; ABCB1 rs1045642 T>C, T/T (n 4); read-out: AUClast (SD)
MEASUREMENT KIND: AUC(0-t) (ng·h/mL)
Give a bare numeral; the unit ng·h/mL is implied.

Prompt line: What value of AUC(0-t) has been reported for the following compound? CC(=N)N(C)c1ccc(C(=O)Nc2ccc(C)cc2C(=O)Nc2ccc(Cl)cn2)cc1.Cl
Response line: 35.5

---

Assay: Pharmacokinetic parameters (Tmax, AUClast, Cmax) of DD217 in phase II trial patients
Format: in vivo, human (patients undergoing knee replacement surgery)
Conditions: human, plasma, oral, 60 mg/day; ABCB1 rs1128503 T/T (n 4); read-out: AUClast (SD)
MEASUREMENT KIND: AUC(0-t)

Prompt line: What value of AUC(0-t) has been reported for the following molecule? CC(=N)N(C)c1ccc(C(=O)Nc2ccc(C)cc2C(=O)Nc2ccc(Cl)cn2)cc1.Cl
Response line: 14 ng·h/mL
